Tested on: human colon cancer HT29
Test: In vitro cell growth inhibition test, MTT assay
Type: cell-based
Settings: MTT assay 4 days after compound addition
Category | rule: reported IC50, HT29 within range, see low (below 0.008 µg/mL), medium (0.008 µg/mL to below 0.03 µg/mL), high (0.03 µg/mL or more)

# CHEMICAL SMILES, ASSIGNED LABEL
data = [
    ("CCNC(=Nc1nc(C)ncc1CSc1nnc(-c2ccc(Br)cc2)o1)NCC", "medium"),
    ("CNC(=Nc1nc(C)ncc1CSc1nnc(-c2ccc(N)cc2)o1)NC(C)C", "low"),
    ("CCNC(=Nc1nc(C)ncc1CSc1nnc(-c2c(N)cccc2F)o1)NCC", "medium"),
    ("CCNC(=Nc1nc(C)ncc1CSc1nnc(-c2ccccc2)o1)NCC", "high"),
    ("CCNC(=Nc1nc(C)ncc1CSc1nnc(-c2cccc(N)c2)o1)NCC", "high"),
    ("CCNC(=Nc1nc(C)ncc1CSc1nnc(-c2ccc(N)c(C)c2)o1)NCC", "high"),
    ("CCNC(=Nc1ncncc1CSc1nnc(-c2ccc([N+](=O)[O-])cc2)o1)NC", "low"),
    ("CCNC(=Nc1nc(C)ncc1CSc1nnc(-c2c[nH]nc2N)o1)NCC", "high"),
    ("CCNC(=Nc1nc(C)ncc1CSc1nnc(-c2ccc([N+](=O)[O-])cc2)o1)NCC.Cl", "medium"),
    ("CCNC(=Nc1nc(C)ncc1CSc1nnc(-c2ccc(N)cc2)o1)NC", "low"),
    ("CCNC(=Nc1nc(C)ncc1CSc1nnc(-c2ccccc2N)o1)NC", "medium"),
    ("CCCNC(=Nc1nc(CC)ncc1CSc1nnc(-c2ccc([N+](=O)[O-])cc2)o1)NCC", "high"),
    ("CCNC(=Nc1nc(C)ncc1CSc1nnc(-c2ccc(N)cc2OC)o1)NCC.Cl", "high"),
    ("CCNC(=Nc1nc(C)ncc1CSc1nnc(-c2ccc(I)cc2)o1)NCC", "high"),
    ("CNC(=Nc1ncncc1CSc1nnc(-c2ccc([N+](=O)[O-])cc2)o1)NC", "low"),
    ("CCNC(=Nc1ncncc1CSc1nnc(-c2ccc(N)cc2)o1)NCC", "low"),
]

###

// IC50, HT29 lookup, one value per entry
System: human colon cancer HT29
Assay: In vitro cell growth inhibition test, MTT assay
Format: cell-based
Conditions: MTT assay 4 days after compound addition
MEASURED METRIC: IC50, HT29 (ng/mL)

# CHEMICAL SMILES, TARGET OF ASSAY, MEASURED METRIC, MEASURED RESULT
data = [
    ("CCNC(=Nc1nc(C)ncc1CSc1nnc(-c2ccc(N)nc2)o1)NCC", "human colon cancer HT29", "IC50, HT29", 39),
    ("CCNC(=Nc1ncncc1CSc1nnc(-c2ccccc2N)o1)NCC", "human colon cancer HT29", "IC50, HT29", 7.1),
    ("CCCCNC(N)=Nc1nc(C)ncc1CSc1nnc(-c2ccccc2N)o1", "human colon cancer HT29", "IC50, HT29", 100),
    ("CCCNC(=Nc1nc(C)ncc1CSc1nnc(-c2ccc(N)cc2OC)o1)NCCC", "human colon cancer HT29", "IC50, HT29", 23),
    ("CCNC(=Nc1nc(C(F)(F)F)ncc1CSc1nnc(-c2ccccc2N)o1)NCC", "human colon cancer HT29", "IC50, HT29", 320),
    ("C=CCNC(=Nc1nc(C)ncc1CSc1nnc(-c2ccc([N+](=O)[O-])cc2)o1)NCC", "human colon cancer HT29", "IC50, HT29", 6.1),
    ("CCNC(=Nc1nc(C(C)C)ncc1CSc1nnc(-c2ccc([N+](=O)[O-])cc2)o1)NCC", "human colon cancer HT29", "IC50, HT29", 29),
    ("CCNC(=Nc1ncncc1CSc1nnc(-c2csc([N+](=O)[O-])c2)o1)NCC", "human colon cancer HT29", "IC50, HT29", 100),
]
